Tested on: SF-539 CNS
MEASUREMENT DESCRIPTION: NCI tumour cell line growth inhibition, 48 h; in the data active means GI50 below about 0.43 µM; inactive means the rest
Give one outcome, nothing more. List: true = active, false = inactive

COCCn1cc(-c2nc(-c3cc4cccnc4[nH]3)cs2)c2cc(OC)ccc21 ... false
C/C=C/[C@@H]1O[C@@H]2COC(=O)C2=C[C@@H]1O ... false
Cn1cc(-c2cc3c(N4CCN(c5ncc([C@@](C)(N)c6ccc(F)cc6)cn5)CC4)ncnn3c2)cn1 ... false
COc1ccc(CN2C(=O)C(Cl)=C(Nc3cccc(C(F)(F)F)c3)C2=O)cc1 ... false
CN1CCN(c2ccc(Nc3ncc(Cl)c(NC[C@@H]4CCCO4)n3)cc2)CC1 ... false

We next turn to a different compound, shown below.
For `CCCCCCOc1ccc(/C=N/Nc2cc(C)nc3ccc(Cl)cc23)cc1` , which call appears in the assay record?
false
